test-summary: Clearance in pre-cannulated Sprague-Dawley rat at 2 mg/kg, iv after […] to 8 hrs by LC-MS/MS analysis
Type: ADME, organism-based
conditions-used: in vivo
What clearance was measured for each of the following?
Numbers only, in mL/min/kg.

Below, 2 compounds whose answers are already recorded.
CCCCCCCCCCCCC[C@H](O)C[C@H](O)[C@H](C)N ... 76.2
C[C@H](N)[C@@H](O)C[C@@H](O)CCCCCCCCCCCCC(F)(F)F ... 136

Field: next compound
In: Tell me clearance reported for CCCCCCCCCCCCC(F)(F)[C@H](O)C[C@H](O)[C@H](C)N
Out: 34
